# abundance fitness listing for each entry below
B1: POU domain, class 4, transcription factor 2, residues 256 to 327; numbered along this chain, Q12837 (parent)
chain: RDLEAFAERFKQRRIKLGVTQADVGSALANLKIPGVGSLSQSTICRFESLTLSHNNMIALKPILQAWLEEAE

# Variants of: B1
# assay-explanation: abundance fitness (aPCA) (normalised: wild type 0, dead -1); higher = more abundant; growth selection in yeast, the domain comes from the species named
# particulars: Homo sapiens
Keep the answer to the number alone.

These solved cases illustrate the format of a correct answer.
D23N    -0.119
R14I    -0.601

// moving on: another record for abundance fitness
Query: Look up abundance fitness for this variant: `T43F`
Response: -0.289
